B1: FBXO34 (parent)
chain: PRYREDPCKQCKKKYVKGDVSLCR

- Variants of: B1
- measurementProtocol: protein stability index of a GFP-peptide fusion (GPS, HEK-293T) (PSI 1-6); higher = more stable;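 further: lentivirally expressed fusions sorted by FACS into six bins by GFP to DsRed ratio, PSI derived from sequencing read proportions per bin multiplied by bin number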
- measurementContext: c terminus: a fixed tail appended
testReadout: protein stability index
Give only the figure.

// known answers, use as guide
residueChange	protein stability index
Y15A	2.8
P7N	2.94
S21E	2.83
P1G	2.89
E5C	2.7
Q10N	2.64

Proceed to the following item.
query: Record request: protein stability index value, item `R4A`
result: 3.38
